- experimental_system: IL-15 (human, UniProt P40933)
- Sequence (P40933 49-162): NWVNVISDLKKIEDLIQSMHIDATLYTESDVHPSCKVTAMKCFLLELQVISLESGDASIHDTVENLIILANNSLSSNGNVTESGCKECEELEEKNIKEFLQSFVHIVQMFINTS
- assay_procedure: SPR, PD1 capture
Kindly supply the reported pKd values for the records listed here.
Value format note: pKd is -log10 of concentration (mol/L); just state the number.

Looking up RV32 IL-15 arm (antibody, V domains shown) VH: QVQLVQSGAEVKKPGASVKVSCKASGYSFSSFGISWVRQAPGQGLEWLGWISAFNGYTKYAQKFQDRVTMTTDTSTSTAYMELRSLRSDDTAVYYCARDPAAWPLQQSLAWFDPWGQGTMVTVSS VL: QSVLTQPPSASGTPGQRVTISCSGSTSNLKRNYVYWYQQLPGTAPKLLIYRDRRRPSGVPDRFSGSKSGTSASLAISGLRSEDEADYYCAWYDRELSEWVFGGGTKLTVL , I found its pKd recorded as 9.45

For this binder ( RV31 IL-15 arm (antibody, V domains shown) VH: QVQLVQSGAEVKKPGASVKVSCKASGYSFSSFGISWVRQAPGQGLEWLGWISAFNGYTKYAQKFQDRVTMTTDTSTSTAYMELRSLRSDDTAVYYCARDPAAWPLQQSLAWFDPWGQGTMVTVSS VL: QSVLTQPPSASGTPGQRVTISCSGSTSNLKRNYVYWYQQLPGTAPKLLIYRDRRRPSGVPDRFSGSKSGTSASLAISGLRSEDEADYYCAWYDRELSEWVFGGGTKLTVL ), measured pKd is 9.14

get_value(item= RV36 IL-15 arm (antibody, V domains shown) VH: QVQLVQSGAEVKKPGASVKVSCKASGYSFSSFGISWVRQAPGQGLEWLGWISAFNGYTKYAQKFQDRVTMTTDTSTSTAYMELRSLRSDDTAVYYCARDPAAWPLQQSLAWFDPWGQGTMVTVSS VL: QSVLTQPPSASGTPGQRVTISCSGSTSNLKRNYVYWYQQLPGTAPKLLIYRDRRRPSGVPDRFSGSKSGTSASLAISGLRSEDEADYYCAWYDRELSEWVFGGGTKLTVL , readout=pKd) returns 9.95
